ASSAYED_TARGET: Signal peptidase I (Escherichia coli K-12)
TEST_SUMMARY: Inhibition of full length Escherichia coli His6-tagged LepB expressed in Escherichia coli C43(DE3) at 100 uM using dabcyl-VEVGGTATAGAFSRPGLE-(EDANS) as substrate preincubated for 10 mins followed by substrate addition measured for 2 hrs by FRET assay relative to control
QUANTITY: inhibition (%)

CC(=O)N[C@@H](C)C(=O)N[C@@H](CC(N)=O)C(=O)N[C@@H](C)C(=O)C(=O)NCc1cccc2ccccc12    26.6

A = CNC(=O)[C@@H]1CCCN1C(=O)[C@H](C)NC(=O)[C@H](CC(N)=O)NC(=O)[C@H](C)NC(=O)[C@@H](NC(=O)[C@@H]1CCCN1C(C)=O)[C@H](C)O
B = CC(=O)N1CCC[C@H]1C(=O)N[C@H](C(=O)N[C@@H](C)C(=O)N[C@@H](CC(N)=O)C(=O)N[C@@H](C)C(=O)C(=O)NC(C)(C)C)[C@H](C)O
Prompt: Please choose the item with the lower inhibition value from this pair: A and B Returns: label corresponding to the selected item.
Completion: B
